target: DYRK1A kinase domain (Homo sapiens, UniProt Q13627); construct: kinase domain of DYRK1A (126–490) was cloned into pET24a with C-terminal His-tag; made in house; host or cells: E. coli BL21 (DE3) RIL; experiment: MST direct binding assay; conditions: Table 2, Biochemistry; unit inferred
measurement.kind: Kd (nM)
Response body: numeric value in nM, unit text excluded.

GET /value?item= `O=c1ccc2cnc3ccc(-c4cn[nH]c4)cc3c2n1-c1ccc(F)cc1C(F)(F)F` &field=Kd returns 1830
